The reported numbers originate from PubChem BioAssay (NCI).

# Tested on: SNB-19 CNS
# procedureText: NCI tumour cell line growth inhibition, 48 h; in the data active means GI50 below about 0.43 µM; inactive means the rest
Could you please pick one outcome from this set? T for active, F for inactive

Consider the worked cases shown below.
[[record]]
molecule = "Nc1nc(Nc2ccc(C3CCC(N4CCOCC4)CC3)cc2)nn1-c1ccccn1 (stereo not given)"
cat = "F"

[[record]]
molecule = "O=C(Nc1cccc(NC(=O)Nc2cc(C(F)(F)F)ccc2Cl)c1)Nc1cc(C(F)(F)F)ccc1Cl"
cat = "F"

[[record]]
molecule = "CCOc1cc2ncc(C#N)c(Nc3ccc(OCc4ccccn4)c(Cl)c3)c2cc1NC(=O)/C=C/CN(C)C"
cat = "F"

[[record]]
molecule = "COc1ccc(C2SC(C)C(=O)N2NC(=O)C(O)c2ccccc2)cc1OC (stereo not given)"
cat = "F"


For the next question, use this molecule.
-- ask Which outcome was entered for the molecule `CCN(CC)Cc1ccc(Nc2nccc(-c3cnn4ncccc34)n2)cc1` in this test?
-- reply T

---

Quick list: TGI per entry.
# System: CCRF-CEM leukemia
# procedureText: NCI tumour cell line growth inhibition, 48 h

-- ask // query TGI value for entry COc1ccc(/C=C2\CCCC3=C2NC(N)=NC3c2ccc(OC)c(OC)c2)cc1OC (configuration not stated)
-- reply > 100 µM

-- ask # repeat for `COc1ccc(/C=C2\S/C(=N/Nc3nc(-c4ccccc4)cs3)NC2=O)cc1OC`
-- reply 22.3 µM

-- ask `C1CN(SSN2CCOCC2)CCO1` ?
-- reply > 100 µM

-- ask What would you report for COc1cc(C2C(Cl)C(=O)N2NC(=O)c2ccc(N)cc2)ccc1O (configuration not stated) ?
-- reply 47.3 µM

-- ask Note, next up: COc1ccc(C(C#N)Cc2cc(OC)c(OC)c(OC)c2)cc1 (configuration not stated)
-- reply > 100 µM

-- ask How about this compound: `O=C(OCCN=c1c2ccccc2ccc2ccccc12)c1ccc([N+](=O)[O-])cc1`
-- reply > 100 µM

---

# System: DU-145 prostate
# procedureText: NCI tumour cell line growth inhibition, 48 h; in the data active = GI50 below about 0.43 µM; inactive = the rest
One label from this list, please: active, inactive

[[record]]
compound = "O=C(Nc1cccc(NC(=O)Nc2cc(C(F)(F)F)ccc2Cl)c1)Nc1cc(C(F)(F)F)ccc1Cl"
cat = "inactive"

[[record]]
compound = "C1CN(SSN2CCOCC2)CCO1"
cat = "inactive"


-- ask Hi, sorry to bother you, what did the test record for `CCCOC(=O)N1CCN(/[N+]([O-])=N/Oc2ccc([N+](=O)[O-])cc2[N+](=O)[O-])CC1` ?
-- reply inactive

-- ask Input `COc1ccc(C(=O)c2cc3c(N)c(C(=O)Nc4cccc5ccccc45)sc3nc2C)cc1`
-- reply active

-- ask Next entry: `CN1CC[C@@H](c2c(O)cc(O)c3c(=O)cc(-c4ccccc4Cl)oc23)[C@@H]1CO`
-- reply active

-- ask Please answer likewise for `COc1ccc(OC)c(-c2c(C#N)c(N)nc(N3CCOCC3)c2C#N)c1`
-- reply inactive

-- ask Please give the result for C[C@@H]1CC[C@H]2C(C(O)CCCCC(O)C3=C(C(F)(F)F)O[C@@H]4O[C@@]5(C)CC[C@H]6[C@H](C)CC[C@@H]3[C@@]46OO5)=C(C(F)(F)F)O[C@@H]3O[C@@]4(C)CC[C@@H]1[C@]32OO4 (stereo partly drawn) too.
-- reply inactive

-- ask // next record `O=C(/C=C/c1ccc([N+](=O)[O-])cc1)c1ccc2c3c(cccc13)CC2`
-- reply inactive
